test system: COLO 205; experiment: Cytotoxicity against human COLO205 cells after 48 hrs by sulforhodamine B assay; type: functional; conditions: COLO 205, 48 h
quantityKind: GI50 (µM)
Answer with a number only, understood to be in µM.

Illustrative cases are given below, each with its answer.
INSERT INTO assay_data (smilesstr, quantitykind, valuemeasured) VALUES
  ('COc1ccc(C(=O)c2cc(OC)c(OC)c(OC)c2)c(OC)c1O', 'GI50', 6.2),
  ('COc1ccc(C(=O)c2cc(OC)c(OC)c(OC)c2)cc1O', 'GI50', 4.86),
  ('COc1cc(C(=O)c2ccc3c(c2)oc(=O)n3S(C)(=O)=O)cc(OC)c1OC', 'GI50', 2.5),
  ('COc1ccc(C(=O)c2cc(OC)c(O)c(OC)c2)cc1OC', 'GI50', 14.2);

Prompt: Please give the measured GI50 for this molecule: COc1cc(C(=O)c2ccc(OC)c(O)c2OC)cc(OC)c1O
Completion: 4.83
